src = paper PMC12114461

target: Duox1 (hDuox1) (Homo sapiens, UniProt Q9NRD9)
Sequence (Q9NRD9 22-1551): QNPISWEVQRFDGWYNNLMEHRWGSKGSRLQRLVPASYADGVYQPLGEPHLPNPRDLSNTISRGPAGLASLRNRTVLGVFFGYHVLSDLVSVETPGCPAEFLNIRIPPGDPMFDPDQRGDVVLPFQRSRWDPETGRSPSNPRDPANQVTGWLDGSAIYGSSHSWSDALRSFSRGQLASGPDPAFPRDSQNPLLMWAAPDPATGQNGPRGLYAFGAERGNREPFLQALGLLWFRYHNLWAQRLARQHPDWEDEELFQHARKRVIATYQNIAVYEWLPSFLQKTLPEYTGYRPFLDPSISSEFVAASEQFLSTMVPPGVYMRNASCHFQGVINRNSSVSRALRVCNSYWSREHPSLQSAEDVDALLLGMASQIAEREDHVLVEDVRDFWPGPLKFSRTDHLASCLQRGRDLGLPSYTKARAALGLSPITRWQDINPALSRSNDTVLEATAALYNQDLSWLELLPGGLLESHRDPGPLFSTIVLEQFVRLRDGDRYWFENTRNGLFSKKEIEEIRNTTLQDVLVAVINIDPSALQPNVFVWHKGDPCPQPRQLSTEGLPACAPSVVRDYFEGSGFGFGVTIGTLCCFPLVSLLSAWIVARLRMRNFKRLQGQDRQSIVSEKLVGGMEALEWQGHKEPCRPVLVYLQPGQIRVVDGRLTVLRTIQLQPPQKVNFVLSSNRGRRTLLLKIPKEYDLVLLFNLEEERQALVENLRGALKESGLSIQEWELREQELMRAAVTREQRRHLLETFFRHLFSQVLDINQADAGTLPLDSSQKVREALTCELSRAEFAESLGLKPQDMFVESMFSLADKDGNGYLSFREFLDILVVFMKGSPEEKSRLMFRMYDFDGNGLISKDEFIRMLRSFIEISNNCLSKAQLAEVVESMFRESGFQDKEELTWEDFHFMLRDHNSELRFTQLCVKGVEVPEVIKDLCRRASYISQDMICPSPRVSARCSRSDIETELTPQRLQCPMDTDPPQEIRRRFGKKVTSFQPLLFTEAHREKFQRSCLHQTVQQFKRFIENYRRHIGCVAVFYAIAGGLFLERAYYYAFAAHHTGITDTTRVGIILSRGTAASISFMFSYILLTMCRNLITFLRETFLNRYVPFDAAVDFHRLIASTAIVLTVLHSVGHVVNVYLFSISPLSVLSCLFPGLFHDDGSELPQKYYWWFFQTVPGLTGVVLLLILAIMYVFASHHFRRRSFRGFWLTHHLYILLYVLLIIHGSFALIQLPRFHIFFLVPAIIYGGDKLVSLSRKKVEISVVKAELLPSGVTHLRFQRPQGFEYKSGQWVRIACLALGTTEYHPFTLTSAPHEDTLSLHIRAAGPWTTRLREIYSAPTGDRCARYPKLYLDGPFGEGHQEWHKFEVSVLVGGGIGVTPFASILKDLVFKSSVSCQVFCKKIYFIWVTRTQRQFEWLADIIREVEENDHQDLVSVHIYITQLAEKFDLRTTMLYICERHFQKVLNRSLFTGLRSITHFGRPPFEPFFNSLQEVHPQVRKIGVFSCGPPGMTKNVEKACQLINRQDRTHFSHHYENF
assay.endpoint: IC50 (µM)
Report the figure in µM without appending any unit label.

INPUT: Lab note: need IC50 with Duox1 (hDuox1) (Homo sapiens, UniProt Q9NRD9) for entry C=C[C@H](OC(C)=O)c1ccc(OC(C)=O)cc1 [compound 26, 1′S-1′-acetoxychavicol acetate] , please look it up.
OUTPUT: 30.8

---

Target protein (sequence): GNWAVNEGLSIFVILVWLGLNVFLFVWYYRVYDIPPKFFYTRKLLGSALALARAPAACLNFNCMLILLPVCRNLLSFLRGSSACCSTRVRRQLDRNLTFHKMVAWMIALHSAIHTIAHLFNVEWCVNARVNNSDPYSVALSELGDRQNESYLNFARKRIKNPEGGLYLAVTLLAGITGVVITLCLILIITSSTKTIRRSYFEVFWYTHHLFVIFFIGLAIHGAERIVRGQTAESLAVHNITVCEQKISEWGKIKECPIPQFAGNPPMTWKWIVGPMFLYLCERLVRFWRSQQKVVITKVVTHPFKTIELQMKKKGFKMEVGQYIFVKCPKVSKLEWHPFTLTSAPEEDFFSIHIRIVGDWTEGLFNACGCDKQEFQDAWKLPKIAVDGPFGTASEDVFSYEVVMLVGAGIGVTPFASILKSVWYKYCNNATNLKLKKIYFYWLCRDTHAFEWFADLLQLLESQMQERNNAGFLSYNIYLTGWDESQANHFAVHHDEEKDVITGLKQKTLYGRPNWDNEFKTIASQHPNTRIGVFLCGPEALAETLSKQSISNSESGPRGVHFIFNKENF
assay.endpoint: pIC50
// field semantics: pIC50 = negative decimal log of concentration (mol/L)

INPUT: Look at this compound and give its reported pIC50. C=C[C@H](OC(C)=O)c1ccc(OC(C)=O)cc1 [compound 26, 1′S-1′-acetoxychavicol acetate]
OUTPUT: 4.37

---

molecular target: UniProt Q9Y5S8
Sequence (Q9Y5S8 whole entry): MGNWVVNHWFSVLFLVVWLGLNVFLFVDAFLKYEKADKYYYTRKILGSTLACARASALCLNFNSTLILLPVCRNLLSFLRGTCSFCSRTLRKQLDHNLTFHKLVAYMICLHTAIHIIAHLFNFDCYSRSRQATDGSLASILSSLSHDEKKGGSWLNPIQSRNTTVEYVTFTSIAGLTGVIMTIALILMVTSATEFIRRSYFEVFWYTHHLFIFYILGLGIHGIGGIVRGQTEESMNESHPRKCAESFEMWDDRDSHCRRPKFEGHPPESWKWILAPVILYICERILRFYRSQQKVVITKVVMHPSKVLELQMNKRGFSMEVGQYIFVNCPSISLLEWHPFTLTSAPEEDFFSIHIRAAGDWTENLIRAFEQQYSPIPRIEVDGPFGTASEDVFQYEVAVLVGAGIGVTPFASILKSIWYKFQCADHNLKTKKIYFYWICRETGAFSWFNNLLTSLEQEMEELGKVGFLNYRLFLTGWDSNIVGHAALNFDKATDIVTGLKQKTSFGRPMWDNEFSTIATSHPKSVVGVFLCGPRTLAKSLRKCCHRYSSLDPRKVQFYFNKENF
assay.endpoint: IC50
Please state the number and follow it with the unit.

INPUT: Give its IC50 value. Item: C=C[C@H](OC(C)=O)c1ccc(OC(C)=O)cc1 [compound 26, 1′S-1′-acetoxychavicol acetate]
OUTPUT: 32.7 µM

---

target: Nox4 (hNox4) (Homo sapiens, UniProt Q9NPH5)
Sequence (Q9NPH5 whole entry): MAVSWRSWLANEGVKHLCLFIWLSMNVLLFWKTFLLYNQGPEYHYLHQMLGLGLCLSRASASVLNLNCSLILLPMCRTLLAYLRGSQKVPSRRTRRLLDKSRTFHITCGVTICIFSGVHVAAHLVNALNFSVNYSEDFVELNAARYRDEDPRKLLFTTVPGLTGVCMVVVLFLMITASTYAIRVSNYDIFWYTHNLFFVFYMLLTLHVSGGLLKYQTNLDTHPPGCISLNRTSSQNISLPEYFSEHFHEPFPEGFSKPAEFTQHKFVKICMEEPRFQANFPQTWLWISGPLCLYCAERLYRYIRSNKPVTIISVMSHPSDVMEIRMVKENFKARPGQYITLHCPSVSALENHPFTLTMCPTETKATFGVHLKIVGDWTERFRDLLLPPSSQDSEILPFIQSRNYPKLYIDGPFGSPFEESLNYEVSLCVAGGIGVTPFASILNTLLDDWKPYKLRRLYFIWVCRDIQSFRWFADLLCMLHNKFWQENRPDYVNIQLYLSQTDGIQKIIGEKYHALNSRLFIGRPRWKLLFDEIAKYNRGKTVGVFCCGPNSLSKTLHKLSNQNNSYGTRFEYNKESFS
assay.endpoint: pIC50
The quantity pIC50 is defined as the negative base-10 logarithm of the molar concentration.

INPUT: Fill in the recorded pIC50 for this compound, with Nox4 (hNox4) (Homo sapiens, UniProt Q9NPH5) as test system: C=C[C@H](OC(C)=O)c1ccc(OC(C)=O)cc1 [compound 26, 1′S-1′-acetoxychavicol acetate]
OUTPUT: 4.50
